Ref: patent EP4410284A1

tested on: PEX405 cells; format: cell-based; details: 10 µM, 3 days, PI positive cells (dead cells)
Strictly below 20% in % PI+ cells: Yes. Otherwise: No.

- O=C(/C=C/c1ccc(O)c(O)c1)c1ccc(O[C@@H]2O[C@H](CO)[C@@H](O)[C@H](O)[C@H]2O)c(O)c1O: No
- Cc1cc(C)cc(C(=O)NOCCCCCC(=O)NO)c1: Yes
- Nc1ccccc1NC(=O)c1ccc(CNC(=O)OCc2cccnc2)cc1: Yes
- Cn1c(CCCCCCC(=O)NO)nc2cc(N(CCCl)CCCl)ccc21: Yes
- O=C1CCc2c(ccc3ccccc23)O1: Yes
- O=C(NCC1(c2nc(-c3ccccc3)cs2)CCOCC1)c1cccc(-c2noc(C(F)(F)F)n2)c1: Yes
- C#Cc1cccc(Nc2ncnc3cc(OC)c(OCCCCCCC(=O)NO)cc23)c1: No
- CCCCOc1ccc(CC(=O)NO)cc1: Yes
- CCCCN(Cc1ccc(C(=O)NO)cc1)C(=O)Nc1ccccc1: Yes
